Target: AR / CBP ternary complex (Homo sapiens, UniProt P10275+Q92793)
Sequence (P10275 whole entry): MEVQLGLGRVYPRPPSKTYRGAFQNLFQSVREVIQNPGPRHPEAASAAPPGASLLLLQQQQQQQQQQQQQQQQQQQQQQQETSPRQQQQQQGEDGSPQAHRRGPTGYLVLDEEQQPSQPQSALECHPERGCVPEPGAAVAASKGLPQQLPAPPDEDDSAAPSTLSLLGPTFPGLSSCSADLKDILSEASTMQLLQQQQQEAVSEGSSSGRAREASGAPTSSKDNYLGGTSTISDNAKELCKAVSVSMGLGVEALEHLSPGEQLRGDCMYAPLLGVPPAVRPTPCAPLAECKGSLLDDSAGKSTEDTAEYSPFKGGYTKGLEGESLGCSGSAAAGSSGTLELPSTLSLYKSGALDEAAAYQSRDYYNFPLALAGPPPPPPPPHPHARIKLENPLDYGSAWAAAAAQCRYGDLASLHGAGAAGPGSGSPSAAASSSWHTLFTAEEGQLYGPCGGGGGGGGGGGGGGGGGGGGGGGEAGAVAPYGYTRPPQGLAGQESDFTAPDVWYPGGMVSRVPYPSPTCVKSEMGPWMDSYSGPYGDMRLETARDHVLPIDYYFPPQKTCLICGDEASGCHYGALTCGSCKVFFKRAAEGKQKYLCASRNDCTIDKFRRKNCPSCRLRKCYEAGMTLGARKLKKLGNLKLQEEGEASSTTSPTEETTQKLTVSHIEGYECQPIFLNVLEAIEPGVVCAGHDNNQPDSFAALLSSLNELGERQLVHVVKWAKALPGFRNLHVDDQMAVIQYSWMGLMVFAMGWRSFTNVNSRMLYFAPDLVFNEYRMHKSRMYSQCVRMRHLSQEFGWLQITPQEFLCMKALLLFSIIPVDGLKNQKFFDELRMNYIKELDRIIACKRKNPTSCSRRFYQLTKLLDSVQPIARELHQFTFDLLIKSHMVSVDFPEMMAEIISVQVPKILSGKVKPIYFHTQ
Sequence (Q92793 2-2442): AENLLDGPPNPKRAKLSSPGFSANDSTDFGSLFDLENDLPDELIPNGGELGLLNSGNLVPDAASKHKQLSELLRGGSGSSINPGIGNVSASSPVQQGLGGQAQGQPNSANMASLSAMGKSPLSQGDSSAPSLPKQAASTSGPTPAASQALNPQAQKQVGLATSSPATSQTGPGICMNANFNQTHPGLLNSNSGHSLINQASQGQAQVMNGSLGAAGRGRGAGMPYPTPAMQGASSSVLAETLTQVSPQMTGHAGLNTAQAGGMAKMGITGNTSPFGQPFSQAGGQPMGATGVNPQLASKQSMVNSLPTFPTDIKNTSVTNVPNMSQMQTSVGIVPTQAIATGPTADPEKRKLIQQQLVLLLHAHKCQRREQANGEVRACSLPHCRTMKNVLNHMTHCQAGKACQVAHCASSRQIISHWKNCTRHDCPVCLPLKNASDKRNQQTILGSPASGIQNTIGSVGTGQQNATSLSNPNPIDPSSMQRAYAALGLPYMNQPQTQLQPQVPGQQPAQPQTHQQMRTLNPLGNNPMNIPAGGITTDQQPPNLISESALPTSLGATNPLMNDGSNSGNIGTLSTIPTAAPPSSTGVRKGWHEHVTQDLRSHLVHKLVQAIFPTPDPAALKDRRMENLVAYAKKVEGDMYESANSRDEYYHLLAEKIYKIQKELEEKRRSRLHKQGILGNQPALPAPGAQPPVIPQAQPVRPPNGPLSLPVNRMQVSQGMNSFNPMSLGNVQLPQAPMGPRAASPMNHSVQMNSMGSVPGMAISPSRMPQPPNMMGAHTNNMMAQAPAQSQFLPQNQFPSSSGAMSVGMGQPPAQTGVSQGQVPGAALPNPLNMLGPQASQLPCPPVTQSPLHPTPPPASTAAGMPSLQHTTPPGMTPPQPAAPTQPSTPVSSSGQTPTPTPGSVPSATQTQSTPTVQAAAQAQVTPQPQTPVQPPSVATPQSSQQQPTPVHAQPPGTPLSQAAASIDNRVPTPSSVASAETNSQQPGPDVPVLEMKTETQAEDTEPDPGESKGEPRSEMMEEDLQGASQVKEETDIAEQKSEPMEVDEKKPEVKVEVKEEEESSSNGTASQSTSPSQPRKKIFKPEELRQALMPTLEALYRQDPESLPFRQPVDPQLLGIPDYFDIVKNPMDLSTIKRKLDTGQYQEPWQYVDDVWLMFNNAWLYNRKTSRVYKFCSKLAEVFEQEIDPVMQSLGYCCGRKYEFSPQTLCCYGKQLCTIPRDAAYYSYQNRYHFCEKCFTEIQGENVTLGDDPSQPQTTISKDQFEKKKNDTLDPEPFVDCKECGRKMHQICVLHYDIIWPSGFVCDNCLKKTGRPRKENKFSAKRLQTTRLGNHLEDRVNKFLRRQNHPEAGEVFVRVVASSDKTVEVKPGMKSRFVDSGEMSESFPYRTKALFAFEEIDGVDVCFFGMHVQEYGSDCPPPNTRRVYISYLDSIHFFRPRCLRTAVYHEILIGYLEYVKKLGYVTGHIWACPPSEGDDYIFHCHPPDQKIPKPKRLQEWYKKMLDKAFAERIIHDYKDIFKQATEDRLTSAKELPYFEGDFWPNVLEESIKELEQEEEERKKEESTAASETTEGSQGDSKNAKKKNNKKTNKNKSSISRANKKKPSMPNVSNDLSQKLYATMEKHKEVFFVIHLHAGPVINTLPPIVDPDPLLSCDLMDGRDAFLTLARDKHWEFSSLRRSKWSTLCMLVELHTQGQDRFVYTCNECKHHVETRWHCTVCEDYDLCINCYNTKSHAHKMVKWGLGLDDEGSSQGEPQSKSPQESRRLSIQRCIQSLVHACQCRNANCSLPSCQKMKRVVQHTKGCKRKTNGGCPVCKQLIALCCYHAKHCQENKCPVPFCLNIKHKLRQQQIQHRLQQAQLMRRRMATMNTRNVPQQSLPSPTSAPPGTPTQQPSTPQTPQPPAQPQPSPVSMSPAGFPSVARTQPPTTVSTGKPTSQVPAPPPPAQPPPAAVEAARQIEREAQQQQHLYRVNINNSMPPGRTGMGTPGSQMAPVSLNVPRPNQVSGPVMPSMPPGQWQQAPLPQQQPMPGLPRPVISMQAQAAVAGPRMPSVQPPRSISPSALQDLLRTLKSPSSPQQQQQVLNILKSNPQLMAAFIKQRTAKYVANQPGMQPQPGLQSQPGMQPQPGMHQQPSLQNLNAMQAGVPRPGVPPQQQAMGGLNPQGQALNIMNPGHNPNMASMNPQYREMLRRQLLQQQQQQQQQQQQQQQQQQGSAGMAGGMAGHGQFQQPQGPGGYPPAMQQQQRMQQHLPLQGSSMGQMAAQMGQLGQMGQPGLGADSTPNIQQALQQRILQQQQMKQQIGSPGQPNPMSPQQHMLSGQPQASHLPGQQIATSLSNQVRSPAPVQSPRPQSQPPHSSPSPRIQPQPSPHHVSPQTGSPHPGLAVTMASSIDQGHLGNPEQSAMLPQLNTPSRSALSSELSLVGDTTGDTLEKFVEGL
Assay: Ternary complex formation assay (sandwich ELISA, AR capture, CBP antibody detection) in VCaP cell lysates
Format: cell-based
Details: read-out: Average Ternary Complex, treated 1.5 hours, rabbit CBP or p300 antibody detection
measured parameter: EC50

>>> measured("CC(=O)N1CCc2c(c(N3CCCc4cc(-c5cnn(C)c5)c(C(F)F)cc43)nn2C2CCN(CC3C4CC3CN(c3ccc(C(=O)N[C@H]5CC[C@H](Oc6ccc(C#N)c(Cl)c6)CC5)nn3)C4)CC2)C1 (some centres unmarked) [Compound 118]")
"< 1 nM"
>>> measured("CC(=O)N1CCc2c(c(N3CCCc4cc(-c5cnn(C)c5)c(C(F)F)cc43)nn2[C@@H]2[C@@H]3C[C@H]2CN(CC2CCN(c4ccc(C(=O)N[C@H]5CC[C@H](Oc6ccc(C#N)c(Cl)c6)CC5)nn4)CC2)C3)C1 [Compound 149]")
"< 1 nM"
>>> measured("CC(=O)N1CCc2c(c(N3CCCc4cc(-c5cnn(C)c5)c(C(F)F)cc43)nn2C2CCC3(CC2)CC(N2CCN(c4ccc(C(=O)N[C@H]5CC[C@H](Oc6ccc(C#N)c(Cl)c6)CC5)nn4)CC2)C3)C1 (some centres unmarked) [Compound 208]")
"< 1 nM"
>>> measured("CC(=O)N1CCc2c(c(-c3cccc4cc(-c5ccc(CCC6CC7(C6)CN(c6ccc(C(=O)N[C@H]8CC[C@H](Oc9ccc(C#N)c(Cl)c9)CC8)nn6)C7)nc5)ncc34)nn2C2CCOCC2)C1 [Compound 48]")
"< 1 nM"
>>> measured("Cn1c(=O)n(C)c2cc(N3CCCc4cc(-c5ccc(CCC6CCN(c7ccc(C(=O)N[C@H]8CC[C@H](Oc9ccc(C#N)c(Cl)c9)CC8)nn7)CC6)nc5)c(C(F)F)cc43)ccc21 [Compound 53]")
"< 1 nM"
>>> measured("CC(=O)N1CCc2c(c(-c3cccc4cc(-c5cnn(CC6CC7(C6)CN(c6ccc(C(=O)N[C@H]8CC[C@H](Oc9ccc(C#N)c(Cl)c9)CC8)nn6)C7)c5)ncc34)nn2C)C1 [Compound 47]")
"1 to 10 nM"
>>> measured("CC(=O)N1CCc2c(c(N3CCCc4cc(-c5cnn(C)c5)c(C(F)F)cc43)nn2C2CCN(C(=O)CC3CCN(c4ccc(C(=O)N[C@H]5CC[C@H](N(C)c6ccc(C#N)c(Cl)c6)CC5)cc4)CC3)CC2)C1 [Compound 13]")
"< 1 nM"
>>> measured("CC(=O)N1CCc2c(c(N3CCCc4cc(-c5cnn(C)c5)c(C(F)F)cc43)nn2C2CCN(CC3CC4CCC(C3)N4c3ccc(C(=O)N[C@H]4CC[C@H](Oc5ccc(C#N)c(Cl)c5)CC4)nn3)CC2)C1 (some centres unmarked) [Compound 126]")
"< 1 nM"
>>> measured("CC(=O)N1CCc2c(c(N3CCCc4cc(-c5cnn(C)c5)c(C(F)F)cc43)nn2C2CCN(C(=O)COC3CCN(c4ccc(C(=O)N[C@H]5CC[C@H](N(C)c6ccc(C#N)c(Cl)c6)CC5)cc4)CC3)CC2)C1 [Compound 12]")
"< 1 nM"
>>> measured("CC(=O)N1CCc2c(c(N3CCCc4cc(-c5cnn(C)c5)c(C(F)F)cc43)nn2[C@H]2[C@@H]3C[C@H]2CN(CC2CCN(c4ccc(C(=O)N[C@H]5CC[C@H](Oc6ccc(C#N)c(Cl)c6)CC5)nn4)CC2)C3)C1 [Compound 150]")
"1 to 10 nM"
>>> measured("CC(=O)N1CCc2c(c(N3CCCc4cc(-c5cnn(C)c5)c(C(F)F)cc43)nn2[C@@H]2C[C@H]3CC[C@@H](C2)N3CC2CCN(c3ccc(C(=O)N[C@H]4CC[C@H](Oc5ccc(C#N)c(Cl)c5)CC4)nn3)CC2)C1 [Compound 152]")
"< 1 nM"

----------
Reported pEC50 values follow for various molecules
Biological target: AR / CBP ternary complex (Homo sapiens, UniProt P10275+Q92793)
Assay: Ternary complex formation assay (sandwich ELISA, AR capture, CBP antibody detection) in VCaP cell lysates
Type: cell-based
Details: treated 1.5 hours, rabbit CBP or p300 antibody detection, average, read-out: Average Ternary Complex
Protocol: […] Incubate for 1 hour at room temperature. […] Immediately read fluorescence on BMG ClarioStar (ex: 570/em 585), and repeat the read in 5 minutes and 15 minutes.
pEC50: −log10 of the molar value.
measured parameter: pEC50

>>> measured("CC(=O)N1CCc2c(c(-c3cccc4cc(-c5cnn(C)c5)ncc34)nn2C2CN(CC3CCN(c4ccc(C(=O)N[C@H]5CC[C@H](Oc6ccc(C#N)c(Cl)c6)CC5)nn4)CC3)C2)C1 [Compound 4]")
"> 9.00"
>>> measured("CC(=O)N1CCc2c(c(N3CCCc4cc(-c5cnn(C)c5)c(C(F)F)cc43)nn2C2CCN(C3CC4(CCN(c5ccc(C(=O)N[C@H]6CC[C@H](Oc7ccc(C#N)c(Cl)c7)CC6)nn5)CC4)C3)CC2)C1 [Compound 176]")
"> 9.00"
>>> measured("CC(=O)N1CCc2c(c(N3CCCc4cc(-c5cscn5)c(C(F)F)cc43)nn2C2CCN(CC3CCN(c4ccc(C(=O)N[C@H]5CC[C@H](Oc6ccc(C#N)c(Cl)c6)CC5)nn4)CC3)CC2)C1 [Compound 253]")
"> 9.00"

----------
Tested on: VCaP cells
Assay: VCaP growth inhibition assay (CTG)
Format: cell-based
Conditions: Homo sapiens, 216 h, 30 pM R1881, 9 days
measured parameter: IC50

>>> measured("CC(=O)N1CCc2c(c(N3CCCc4cc(-c5cnn(C)c5)c(C(F)F)cc43)nn2C2CCN([C@H]3CCN(c4ccc(C(=O)N[C@H]5CC[C@H](Oc6ccc(C#N)c(Cl)c6)CC5)nn4)C3)CC2)C1")
"1 to 100 nM"
>>> measured("CC(=O)N1CCc2c(c(N3CCCc4cc(-c5cnn(C)c5)c(C(F)F)cc43)nn2C2CCN(C[C@H]3[C@H](C)CN(c4ccc(C(=O)N[C@H]5CC[C@H](Oc6ccc(C#N)c(C)c6C)CC5)nn4)C[C@@H]3C)CC2)C1")
"≤ 0.1 nM"
>>> measured("CC(=O)N1CCc2c(c(N3CCCc4cc(-c5cnn(C)c5)c(C)cc43)nn2C2CCN(CC3CCN(c4ccc(C(=O)N[C@H]5CC[C@H](Oc6ccc(C#N)c(C)c6)CC5)nn4)CC3(C)C)CC2)C1 (stereo partly drawn)")
"≤ 0.1 nM"
>>> measured("CC(=O)N1CCc2c(c(N3CCCc4cc(-c5cnn(C)c5)c(C(F)F)cc43)nn2[C@H]2CC[C@]3(CCCN(C4CN(c5ccc(C(=O)N[C@H]6CC[C@H](Oc7ccc(C#N)c(Cl)c7)CC6)nn5)C4)C3)CC2)C1")
"0.1 to 1 nM"
>>> measured("CC(=O)N1CCc2c(c(-c3cccc4cc(-c5ccc(CCN6CCN(c7ccc(C(=O)N[C@H]8CC[C@H](Oc9ccc(C#N)c(Cl)c9)CC8)nn7)CC6)nc5)ncc34)nn2C)C1")
"≤ 0.1 nM"
>>> measured("Cc1noc(C)c1-c1ccc2c(c1)nc(C1CCCC(=O)N1c1ccc(F)c(F)c1)n2C1CCN(CC2CCN(c3ccc(C(=O)N[C@H]4CC[C@H](Oc5ccc(C#N)c(Cl)c5)CC4)nn3)CC2)CC1 (stereo partly drawn)")
"> 100 nM"
>>> measured("CC(=O)N1CCc2c(c(N3CCCc4cc(-c5cnn(C)c5)c(C(F)F)cc43)nn2[C@H]2CC[C@H](N(C)C3CCN(c4ccc(C(=O)N[C@H]5CC[C@H](Oc6ccc(C#N)c(Cl)c6)CC5)nn4)CC3)CC2)C1")
"≤ 0.1 nM"
>>> measured("CC(=O)N1CCc2c(c(N3CCCc4cc(-c5cnn(C)c5)c(C(F)F)cc43)nn2[C@H]2CC[C@H](N3CC4(CC(Oc5ccc(C(=O)N[C@H]6CC[C@H](Oc7ccc(C#N)c(Cl)c7)CC6)nn5)C4)C3)CC2)C1")
"≤ 0.1 nM"
>>> measured("CC(=O)N1CCc2c(c(N3CCCc4cc(-c5cnn(C)c5)c(C(F)F)cc43)nn2C2CCN([C@H]3C[C@H](Oc4ccc(C(=O)N[C@H]5CC[C@H](Oc6ccc(C#N)c(Cl)c6)CC5)nn4)C3)CC2)C1")
"0.1 to 1 nM"

----------
System: VCaP cells
Assay: VCaP growth inhibition assay (CTG)
Type: cell-based
Conditions: Homo sapiens, 216 h, 30 pM R1881, 9 days
Reported IC50 values follow for various compounds
measured parameter: IC50

>>> measured("Cc1cc2c(N3CCN(C)c4cc(-c5cnn(C)c5)c(C#N)cc43)cc(OCCOC3CCN(c4ccc(C(=O)N[C@H]5CC[C@H](Oc6ccc(C#N)c(Cl)c6)CC5)nn4)CC3)cc2n(C)c1=O")
"≤ 0.1 nM"
>>> measured("CC(=O)N1CCc2c(c(N3CCCc4cc(-c5cnn(C)c5)c(C(F)F)cc43)nn2[C@@H]2C[C@H]3CC[C@@H](C2)N3CC2CCN(c3ccc(C(=O)N[C@H]4CC[C@H](Oc5ccc(C#N)c(Cl)c5)CC4)nn3)CC2)C1")
"0.1 to 1 nM"
>>> measured("CC(=O)N1CCc2c(c(-c3cccc4cc(-c5ccc(CC6CCN(c7ccc(C(=O)N[C@H]8CC[C@H](Oc9ccc(C#N)c(Cl)c9)CC8)nn7)CC6)nc5)ncc34)nn2C2CCOCC2)C1")
"0.1 to 1 nM"
>>> measured("CC(=O)N1CCc2c(c(-c3cccc4cc(-c5cnn(CCOC6CC7(C6)CN(c6ccc(C(=O)N[C@H]8CC[C@H](Oc9ccc(C#N)c(Cl)c9)CC8)nn6)C7)c5)ncc34)nn2C2CCOCC2)C1")
"0.1 to 1 nM"
>>> measured("CC(=O)N1CCc2c(c(N3CCCc4cc(C#N)ccc43)nn2C2CC3(C2)CN(C(=O)C2CC4(C2)CN(c2ccc(C(=O)N[C@H]5CC[C@H](Oc6ccc(C#N)c(Cl)c6)CC5)nn2)C4)C3)C1 (stereo partly drawn)")
"0.1 to 1 nM"
>>> measured("CC(=O)N1CCc2c(c(N3CCCc4cc(-c5cnn(C)c5)c(C(F)F)cc43)nn2C2CCC3(CC2)CCN(C2CN(c4ccc(C(=O)NC5CCC(Oc6ccc(C#N)c(Cl)c6)CC5)nn4)C2)CC3)C1 (stereo not drawn)")
"≤ 0.1 nM"
>>> measured("C[C@@H]1CC(=O)Nc2cc(C3CCN(CC4CCN(c5ccc(C(=O)N[C@H]6CC[C@H](Oc7ccc(C#N)c(Cl)c7)CC6)nn5)CC4)CC3)cc(-c3ccc4c(c3)c(C3CC3)nn4C)c2N1")
"0.1 to 1 nM"
>>> measured("COc1cc(O[C@H]2CC[C@H](NC(=O)c3ccc(N4CCC(CN5CCC(n6nc(-c7cccc8cc(-c9cnn(C)c9)ncc78)c7c6CCN(C(C)=O)C7)CC5)CC4)cc3)CC2)ccc1C#N")
"≤ 0.1 nM"
>>> measured("CC(=O)N1CCc2c(c(N3CCCc4cc(-c5cnn(C)c5)c(C(F)F)cc43)nn2[C@H]2CC[C@H](CC3CCN(c4ccc(C(=O)N[C@H]5CC[C@H](Oc6ccc(C#N)c(Cl)c6)CC5)nn4)CC3)CC2)C1")
"0.1 to 1 nM"
